assay: ATG_ISRE_CIS: Attagene CIS-FACTORIAL HepG2 Assay for human Interferon Regulatory Factor 1 (IRF1) binding to an Interferon-Stimulated Response Element (ISRE) (AID 2282948); conditions: HepG2 ISRE cis-reporter (Attagene), mRNA transcription readout; actives raise or lower the signal
Activity calls are given as the source filed them. How the source made its calls: active means hit-call score of the fitted dose curve at least 0.9, where 1 is the maximum; inactive means score below 0.9.
readout.label: outcome

CC(=O)c1cccnc1 :: inactive
CCCCCCCCOS(=O)(=O)O :: inactive
CC1=C(C=O)C(C)(C)CCC1 :: inactive
CCCCOCCOCCOCCO :: inactive
CC(C)N1C(=O)c2ccccc2C1=O :: inactive
CCC(C)(C)C1CCC(=O)CC1 :: inactive
C=C(C)C(=O)OCCC[Si](OC)(OC)OC :: inactive
OCC=Cc1ccccc1 :: inactive
O=C(O)C1=NN(c2ccc(S(=O)(=O)O)cc2)C(=O)C1 :: inactive
CC(O)CN (stereo not given) :: inactive
CC(=O)OC(C)(C)C1CC=C(C)CC1 (stereo not given) :: inactive
CCCCOCC(C)OCC(C)O (stereo not given) :: inactive
C=CC(C)CCCC(C)(C)O (stereo not given) :: inactive
Cc1cccc(C)c1 :: inactive
CCCCCCC(O)CCOC(C)=O (stereo not given) :: inactive
NCCN1CCNCC1 :: inactive
CC(C)N(c1ccccc1)C(C)C :: inactive
CCCCCCCCCCCCCC(=O)OCC :: inactive
CC(=O)OC(C)(C)C :: inactive
c1ccc(Sc2ccccc2)cc1 :: inactive
Nc1ccn([C@H]2CC[C@@H](CO)O2)c(=O)n1 :: inactive
NC(N)=S :: inactive
CC(CO)(CO)[N+](=O)[O-] :: inactive
CC/C=C\CCCCO :: inactive
CCCCCc1cccc(=O)o1 :: inactive

###

Experiment: ATG_CMV_CIS: Attagene CIS-FACTORIAL HepG2 Assay for human CMV (Internal Marker) (AID 2282928);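 further: endpoint acts as a background internal control marker rather than a target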
Settings: HepG2 CMV promoter reporter, transcription factor profiling; actives raise or lower the signal
Procedure: ATG_CIS is a cell-based, multiplexed-readout assay that uses HepG2, a human liver cell line, with measurements taken at 24 hours after chemical dosing in a 24-well plate.ATG_CMV_CIS is one of 52 assay component(s) measured or calculated from the ATG_CIS assay. […] This assay endpoint, ATG_CMV_CIS, was analyzed with bidirectional fitting relative to DMSO as the negative control and baseline of activity. […]
Activity calls are given as the source filed them. The calls were made as follows: active = hit-call score of the fitted dose curve at least 0.9, where 1 is the maximum; inactive = score below 0.9.
Outcome codes: Yes for active, No for inactive

CCCCCC(=O)O[C@]1(C(C)=O)CC[C@H]2[C@@H]3CCC4=CC(=O)CC[C@]4(C)[C@H]3CC[C@@]21C :: No
C=C1CC[C@H]2O[C@]2(C)CC[C@@H]2[C@@H]1CC2(C)C :: Yes
CCCCCC1C(=O)CCC1CC(=O)OC (centres undefined) :: No
CCC(C)(C)C1CCC(=O)CC1 :: No
C=CCOC(=O)/C=C\C(=O)OCC=C :: Yes
C=C(C)C(=O)OCCC(C)OC(=O)C(=C)C (centres undefined) :: No
O=C1CCCCCCCCCCCC(=O)OCCO1 :: No
CCC(=O)OC/C=C(\C)CCC=C(C)C :: No
NC(=O)c1cccnc1 :: No
O=C(O)c1cccc(Cl)n1 :: No
c1ccc2c(c1)-c1ccc3ccc4cccc5cc-2c1c3c45 :: No
O=C(C=Cc1ccccc1)OCCCc1ccccc1 :: No
CC1=CCC(C(C)(C)O)CC1 (centres undefined) :: No
CC(C)C(=O)c1ccccc1 :: No
CC(C)Cc1ccccc1 :: No
CCCCCCCCOC(C)=O :: No
CCOC(=O)CCCCCCCCC(=O)OCC :: No
O=S1(=O)CC=CC1 :: No
CC(C)CCCC(C)(C)O :: No
CCCCCCCCCCOC(=O)c1ccccc1C(=O)OCCCCCCCC :: No
COc1ccc(C(C)=O)cc1 :: No
CCC(C)(CCCC(C)C)OC(C)=O (centres undefined) :: No
CC(C)N1C(=O)c2ccccc2C1=O :: No
CC/C=C\CCOC(C)OCC (centres undefined) :: No

###

read-out: CD69, CD69 (gene 969); assay: BSK_SAg_CD69: BioMAP Diversity Plus: SAg Assay for CD69 Biomarker Activity (AID 2283089); conditions: primary human HUVEC with PBMC; actives raise or lower the signal
Activity calls are given as the source filed them. The calls were made as follows: active = hit-call score of the fitted dose curve at least 0.9, where 1 is the maximum; inactive = score below 0.9.
Outcome codes: 1 (yes) (active), 0 (no) (inactive)

c1ccc(Sc2ccccc2)cc1 :: 1 (yes)
C[C@]12CC[C@@H]3c4ccc(O)cc4CC[C@H]3[C@@H]1CC[C@@H]2O :: 1 (yes)
CC(C)Cc1ccc(C(C)C(=O)O)cc1 (stereo not drawn) :: 0 (no)

###

target: Heat shock factor protein 1 (Homo sapiens) (UniProt Q00613); assay: ATG_HSE_CIS: Attagene CIS-FACTORIAL HepG2 Assay for human Heat Shock Transcription Factor 1 (HSE) (AID 2282953); details: HepG2 HSE cis-reporter, Attagene RNA transcription; actives raise or lower the signal
Sequence (Q00613 whole entry, looked up): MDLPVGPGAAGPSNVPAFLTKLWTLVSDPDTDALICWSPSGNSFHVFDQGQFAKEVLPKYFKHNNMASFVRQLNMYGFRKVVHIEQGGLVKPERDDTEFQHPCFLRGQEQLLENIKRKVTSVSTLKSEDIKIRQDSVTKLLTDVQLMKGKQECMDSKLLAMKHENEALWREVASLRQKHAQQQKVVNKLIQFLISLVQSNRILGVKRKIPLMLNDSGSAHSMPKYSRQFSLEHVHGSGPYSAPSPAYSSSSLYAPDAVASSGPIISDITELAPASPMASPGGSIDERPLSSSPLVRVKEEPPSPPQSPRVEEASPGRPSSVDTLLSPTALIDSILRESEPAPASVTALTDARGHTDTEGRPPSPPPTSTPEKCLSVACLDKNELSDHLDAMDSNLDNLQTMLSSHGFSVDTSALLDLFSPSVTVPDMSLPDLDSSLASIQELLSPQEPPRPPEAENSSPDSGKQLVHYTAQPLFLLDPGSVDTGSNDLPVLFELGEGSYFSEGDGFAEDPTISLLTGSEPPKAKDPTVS
The source made the active and inactive calls. The calls were made as follows: active = hit-call score of the fitted dose curve at least 0.9, where 1 is the maximum; inactive = score below 0.9.
Outcome codes: y (active), n (inactive)

CC1=CC[C@@H](C(C)(C)O)CC1 :: n
C1CCCNCC1 :: n
C=CC(=O)OCC(CO)(COC(=O)C=C)COC(=O)C=C :: y
c1ccc2c(c1)-c1ccc3ccc4cccc5cc-2c1c3c45 :: n
C=CC(=O)OCCCCCC :: n
CC/C=C\CCCCO :: n
CCCCCc1cccc(=O)o1 :: n
CC1=C(C=O)C(C)(C)CCC1 :: n
O=c1cc(-c2ccc(O)cc2)oc2cc(O)cc(O)c12 :: y
C=C/C(C)=C/C/C=C(\C)CCC=C(C)C :: n
CCO[Si](CCC#N)(OCC)OCC :: n
CCCCN(CCO)CCO :: n
C=CCOCC(O)CO (centres undefined) :: n
CC/C=C\CCOC(=O)C(C)C :: n
CC1(C)CC(N)CC(C)(CN)C1 (centres undefined) :: n
CCCCCCCC(=O)N(C)C :: n
CCOC(=O)COC(=O)c1ccccc1C(=O)OCC :: n
CCC(=O)OCC=Cc1ccccc1 :: n
C=C(C)C(=O)OCCC[Si](OC)(OC)OC :: n
CCCCCCCOC(C)=O :: n
C=C1CC[C@H]2O[C@]2(C)CC[C@@H]2[C@@H]1CC2(C)C :: n
C=CCOC(=O)/C=C\C(=O)OCC=C :: y
FC(F)(F)c1ccc(Cl)c(Cl)c1 :: n
CCCCCC(=O)O[C@]1(C(C)=O)CC[C@H]2[C@@H]3CCC4=CC(=O)CC[C@]4(C)[C@H]3CC[C@@]21C :: y
NC(=O)c1c(Cl)cccc1Cl :: n
COc1cc(OC)c2ccc(=O)oc2c1 :: n
CC(=O)C1C(=O)C=C(C)OC1=O (centres undefined) :: n
CC(C)(C)c1ccc(S)cc1 :: n
CC(=O)OC(C)(C)C1CC=C(C)CC1 (centres undefined) :: n

###

test: ATG_MRE_CIS: Attagene CIS-FACTORIAL HepG2 Assay for human Metal Responsive Element (MRE) (AID 2282954); conditions: HepG2 MRE cis-reporter transcription, Attagene multiplex; actives raise or lower the signal
Active and inactive are the calls of the source. How the source made its calls: active means hit-call score of the fitted dose curve at least 0.9, where 1 is the maximum; inactive means score below 0.9.
readout.label: outcome

O=c1cc[nH]cc1 :: inactive
c1ccc2scnc2c1 :: inactive
CCCCCCCCCC(=O)OCC :: inactive
CCCCCCCCCCCCOC(C)=O :: inactive
O=S1(=O)CC=CC1 :: inactive
CCOC(=O)C=Cc1ccccc1 :: inactive
COc1ccc(C(C)=O)cc1 :: inactive
COc1ccc2[nH]cc(CCNC(C)=O)c2c1 :: inactive
CCCCCCCCOC(=O)c1ccc(O)cc1 :: inactive
O=C(O)c1ccco1 :: inactive
O=Cc1ccccc1O :: inactive
CCCCCCCCCCCCCC(=O)OCC :: inactive
CCC(=O)OC(C)(C)C1CC=C(C)CC1 (centres undefined) :: inactive
CC(C)(CO)CO :: inactive

###

read-out: Apolipoprotein A-V (APOA5) gene, APOA5 (gene 116519); experiment: LTEA_HepaRG_APOA5: Life Technologies and Expression Analysis (LTEA) Assay for Apolipoprotein A-V (APOA5) gene using HepaRG (AID 2283474); conditions: mRNA level, 48 h; actives raise or lower the signal
Calls of active or inactive are those of the source. Rule for the calls: active = hit-call score of the fitted dose curve at least 0.9, where 1 is the maximum; inactive = score below 0.9.
readout.label: AC50

C[C@]12CC[C@@H]3c4ccc(O)cc4CC[C@H]3[C@@H]1CC[C@@H]2O :: 68 µM (active)
COC(=O)c1ccc(C(=O)OC)cc1 :: inactive
O=C(c1ccc(OCCN2CCCCC2)cc1)c1c(-c2ccc(O)cc2)sc2cc(O)ccc12 :: inactive
C#C[C@]1(O)CC[C@H]2[C@@H]3CCc4cc(O)ccc4[C@H]3CC[C@@]21C :: inactive
CC/C(=C(\c1ccccc1)c1ccc(OCCN(C)C)cc1)c1ccccc1 :: inactive

FYI, the data here is from PubChem BioAssay (EPA / NIEHS).
